Data provenance: paper PMC5051066

- System: Balb/C mice
- protocol description: Toxicological study in mice: serum creatinin, ALT, AST (kidney and liver functions)
- Assay type: in vivo
- test conditions: mice, I.P., 40 mg/kg per day for 6 days
metric: Serum Creatinin (mg/dL)

• COc1c(OC)c(O)c2c(=O)cc(-c3ccc(O)cc3)oc2c1OC = 0.35

----------
- Test system: Balb/C mice
- protocol description: Toxicological study in mice: serum creatinin, ALT, AST (kidney and liver functions)
- Format: in vivo
- test conditions: mice, I.P., 50 mg/kg per day for 6 days
metric: Serum Creatinin (mg/dL)

* COc1c(OC)c(O)c2c(=O)cc(-c3ccc(O)cc3)oc2c1OC [Xanthomicrol, xanthomicrol] | 0.39

----------
Form field: half-life (one value per entry).
- protocol description: Pharmacokinetic study after i.v. administration in rats (online SPE HPLC of plasma, two-compartment model)
- Assay type: in vivo, male Wistar rats
- test conditions: male, Wistar, rat, plasma, iv, 20 mg/kg, i.v. bolus, 20 mg/kg, plasma, read-out: t1/2 (biological half-life) (converted)
- Experimental: Confirmation of calycopterin, xanthomicrol and circimaritin identity was carried out using HPLC analysis of purified compound compared to the material obtained from previous work and also IR spectroscopy. A HPLC method with online solid phase extraction was developed for the analysis of xanthomicrol and calycopterin in biological fluids (Fig. 1) using circimaritin as internal standard (IS). 100 μL of plasma and 10 μL of 500 μg/mL IS were mixed in a 2 mL microcentrifuge tube. […]
metric: half-life

* COc1c(OC)c(O)c2c(=O)cc(-c3ccc(O)cc3)oc2c1OC | ~4 h
* COc1c(OC)c(O)c2c(=O)c(OC)c(-c3ccc(O)cc3)oc2c1OC | ~4 h
